TEST DESCRIPTION: thallium flux activation in parental CHO cells, counter-screen for KCNQ1 potentiator project (AID 493006);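 on activation: fluorescence ratio of max minus min over baseline after K+ and Tl+ depolarization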
SETUP CONDITIONS: parental CHO-K1 cells, FluxOR thallium flux, at 10 µM
Calls of active or inactive are those of the source.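 How the source made its calls: active means duplicate-averaged activation above buffer control mean plus 5 SD of those controls; inactive means the rest.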
Labels: active, inactive

| COMPOUND | CATEGORY LABEL |
| --- | --- |
| CCOCCc1c(O)nc(SC)[nH]c1=O | inactive |
| CC(C)c1ccc(OCC(=O)NNC(=S)NC(=O)c2ccco2)c(Br)c1 | active |
| Cc1ccc(NC2=C(Cl)C(=O)OC2OC(=O)c2ccc(C)cc2)cc1 (centres undefined) | inactive |
| Cc1ccc(N=Nc2ccc(O)c3ncccc23)cc1 | active |
| Cc1ccc(C)c(-n2c3nc(=O)n(C)c(=O)c-3cc3ccccc32)c1 | inactive |
| CC(=O)Oc1c(-c2ccc(Br)o2)oc2ccccc2c1=O | active |
| S=c1nc(-c2ccccc2)[nH]n1-c1ccccc1 | active |
| Cc1ccc(S(=O)(=O)NN2C(=O)/C(=C/c3cccc(F)c3)SC2=S)cc1 | active |
| Cc1cc(-c2cccnc2)c(C#N)c(SCC#N)n1 | inactive |
| Cc1cc(C(=O)OCC(=O)NCc2ccco2)c(C)n1-c1ccc(F)cc1 | active |
| CCc1cc(C(=O)N2CCN(c3ccccn3)CC2)sc1C | inactive |
| CN(C)CCCN(C(=O)CCOc1ccccc1)c1nc2c(F)cccc2s1 | inactive |
| C=C[C@@]1(C)CC(=O)[C@]2(O)[C@@]3(C)[C@@H](O)CCC(C)(C)[C@@H]3[C@H](OC(C)=O)[C@H](O)[C@@]2(C)O1 | inactive |
| CCN(CC)CCn1c(=S)[nH]c2cc(C(=O)NCc3ccc(C)cc3)ccc2c1=O | inactive |
| OC1(c2ccc(Br)cc2)CCNCC1 | inactive |
| Cc1cc(/C=N/NC(=O)CC#N)c(C)n1-c1ccc([N+](=O)[O-])cc1 | inactive |
| CN(C)c1nc(=Nc2cccc(Cl)c2)ss1 | active |
| Cc1cc(/C=N\NC(=O)CC(=O)NC2CCCCC2)c(C)n1-c1cccc(Cl)c1Cl | inactive |
| S=c1nc(-c2ccc(Br)cc2)[nH]c2ccccc12 | active |
| COC(=O)c1sc(NC(=S)NC(=O)c2ccc(C)cc2)nc1C | active |
| CN(C)CCCN1c2ccccc2Sc2ccc(Cl)cc21 | inactive |
| Fc1ccccc1C(c1nnnn1C1CCCC1)N1CCN(Cc2ccccc2)CC1 (centres undefined) | inactive |
| Cc1ccc(Cn2c(SCC(=O)N3CC(=O)Nc4ccccc43)nc3ccccc3c2=O)cc1 | inactive |
| CC(Oc1ccccc1F)C(=O)/C=C/N(C)C (centres undefined) | inactive |
| CC(=O)Oc1c(-c2ccco2)oc2ccccc2c1=O | active |
| Cc1ccc(C(=O)NCCC(=O)NCc2cc(=O)n(C)c(=O)n2C)cc1 | inactive |
| O=S(=O)(Nc1ccccc1Cl)c1ccc(NS(=O)(=O)c2cccs2)cc1 | inactive |
| Cc1ccc(C(=O)N/N=C(/CC(=O)c2cccs2)C(F)(F)F)cc1 | active |
| NS(=O)(=O)c1ccc(CCNC(=O)COC(=O)c2cc([N+](=O)[O-])ccc2N2CCOCC2)cc1 | inactive |
| Cc1ccccc1C(=O)NNC(=S)NC(=O)c1ccc(Cl)cc1Cl | inactive |
| Cc1ccc2nc(NC(=S)NC(=O)c3ccco3)sc2c1 | active |
| Cc1ccc(Cl)cc1N1CCN(C(=O)c2ccc(CN3CCOCC3)cc2)CC1 | inactive |
| O=C(c1ccc(-c2ccccc2)cc1)C1CCCN(C(=O)Cn2cncn2)C1 (centres undefined) | inactive |
| Cc1ccc(SCC2(O)CCN(S(=O)(=O)c3ccc(Cl)cc3)CC2)cc1 | inactive |

# credit: PubChem BioAssay
